target: T1, His-tagged human HtrA1 protease domain (human, UniProt Q92743 161-367); experiment: SPR (BIACORE T200), huHtrA1-PD-His captured by anti-His, Fab injected
T1 construct: His-tagged protease domain; also called huHtrA1-PD-His; huHtrA1-PD
T1 sequence (Q92743 other isoform, or with tags, fused parts or gaps limits assumed): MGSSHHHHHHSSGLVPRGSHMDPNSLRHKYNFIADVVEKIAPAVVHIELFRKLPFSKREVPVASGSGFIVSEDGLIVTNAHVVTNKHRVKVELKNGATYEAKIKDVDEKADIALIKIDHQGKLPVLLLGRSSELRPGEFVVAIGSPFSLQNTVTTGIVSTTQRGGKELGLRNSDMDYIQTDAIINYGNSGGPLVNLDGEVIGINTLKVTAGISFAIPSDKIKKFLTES
# koff per entry

{"binder": "combination mutant LC3.HC1 Fab (Fab, V domains shown, Fab) VH: EVQLVQSGAEVKKPGASVKVSCKASGYTFKDSEMHWVRQAPGQGLEWIGGVDPETDGAAYNQKFKGRATITRDTSTSTAYLELSSLRSEDTAVYYCTRGYDYDYALDYWGQGTLVTVSS VL: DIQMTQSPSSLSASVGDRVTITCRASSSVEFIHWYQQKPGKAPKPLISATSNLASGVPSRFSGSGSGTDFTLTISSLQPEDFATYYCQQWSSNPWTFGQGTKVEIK", "units of measure": "s⁻¹", "koff": "7.95e-05"}
{"binder": "combination mutant LC3.HC3 Fab (Fab, V domains shown, Fab) VH: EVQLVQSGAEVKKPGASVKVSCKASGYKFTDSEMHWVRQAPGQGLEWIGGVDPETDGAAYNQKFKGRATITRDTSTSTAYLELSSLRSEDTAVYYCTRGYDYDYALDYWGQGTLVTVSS VL: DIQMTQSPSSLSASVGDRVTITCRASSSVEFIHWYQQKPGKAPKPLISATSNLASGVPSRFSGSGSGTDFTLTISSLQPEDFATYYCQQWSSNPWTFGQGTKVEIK", "units of measure": "s⁻¹", "koff": "4.93e-05"}
{"binder": "combination mutant LC5.HC1 Fab (Fab, V domains shown, Fab) VH: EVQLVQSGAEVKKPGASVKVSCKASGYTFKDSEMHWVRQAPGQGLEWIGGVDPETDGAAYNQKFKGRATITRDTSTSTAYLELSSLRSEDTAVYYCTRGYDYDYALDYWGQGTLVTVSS VL: DIQMTQSPSSLSASVGDRVTITCRASSSVNFIHWYQQKPGKAPKPLISATSELASGVPSRFSGSGSGTDFTLTISSLQPEDFATYYCQQWSSNPWTFGQGTKVEIK", "units of measure": "s⁻¹", "koff": 0.00023}
{"binder": "combination mutant LC3.HC5 Fab (Fab, V domains shown, Fab) VH: EVQLVQSGAEVKKPGASVKVSCKASGYTFTDSELHWVRQAPGQGLEWIGGVDPETDGAAYNQKFKGRATITRDTSTSTAYLELSSLRSEDTAVYYCTRGYDYDYALDYWGQGTLVTVSS VL: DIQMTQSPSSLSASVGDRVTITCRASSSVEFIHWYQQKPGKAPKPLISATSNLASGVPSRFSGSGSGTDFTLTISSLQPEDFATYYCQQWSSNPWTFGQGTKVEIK", "units of measure": "s⁻¹", "koff": 0.000102}
